These data points were gathered from ChEMBL document CHEMBL1255419.

# test-name: Plasma protein binding in CD1 mouse at 1000 ug/ml by ultrafiltration technique
# Format: ADME, cell-free
# condition-details: read-out: PPB (converted)
test-readout: fraction unbound at 1000 ug/ml
Write the number on its own, no unit after it.

Assign fraction unbound at 1000 ug/ml to the following record: Cc1oc(=O)oc1COC(=O)C1=C([C@H]2CCCO2)S[C@@H]2[C@@H]([C@@H](C)O)C(=O)N12 [FAROPENEM MEDOXOMIL]
0.82

* * *

# Tested on: Bacillus anthracis
# test-name: microbe, parasite or virus in culture
# Format: functional
test-readout: MIC

Some solved cases for reference:
{"compound": "CN(C)[C@@H]1C(O)=C(C(N)=O)C(=O)[C@@]2(O)C(O)=C3C(=O)c4c(O)cccc4[C@@](C)(O)[C@H]3C[C@@H]12 [TETRACYCLINE]", "MIC": "≤ 0.06 µg/mL"}
{"compound": "CC1(C)S[C@@H]2[C@H](NC(=O)Cc3ccccc3)C(=O)N2[C@H]1C(=O)O [PENICILLIN G]", "MIC": "1 µg/mL"}
{"compound": "Cc1oc(=O)oc1COC(=O)C1=C([C@H]2CCCO2)S[C@@H]2[C@@H]([C@@H](C)O)C(=O)N12 [FAROPENEM MEDOXOMIL]", "MIC": "0.12 µg/mL"}
{"compound": "O=C(O)c1cn(C2CC2)c2cc(N3CCNCC3)c(F)cc2c1=O [CIPROFLOXACIN]", "MIC": "0.12 µg/mL"}
{"compound": "CC[C@H]1OC(=O)[C@H](C)[C@@H](O[C@H]2C[C@@](C)(OC)[C@@H](O)[C@H](C)O2)[C@H](C)[C@@H](O[C@@H]2O[C@H](C)C[C@H](N(C)C)[C@H]2O)[C@](C)(O)C[C@@H](C)CN(C)[C@H](C)[C@@H](O)[C@]1(C)O [AZITHROMYCIN]", "MIC": "4 µg/mL"}

Indicate its recorded MIC; the compound in question is C[C@@H](O)[C@H]1C(=O)N2C(C(=O)O)=C(S[C@@H]3CN[C@H](C(=O)N(C)C)C3)[C@H](C)[C@H]12 [MEROPENEM]
0.25 µg/mL

Specify MIC for C[C@H]1c2cccc(O)c2C(=O)C2=C(O)[C@]3(O)C(=O)C(C(N)=O)=C(O)[C@@H](N(C)C)[C@@H]3[C@@H](O)[C@@H]21.O [DOXYCYCLINE] and stop.
≤ 0.06 µg/mL
